I'd be grateful if you could share measured solubility kinetic for these entries.
- Settings: buffer; pH 7.4; 200.0 µM
Write the number in µg/mL without appending the unit.

# solubility kinetic lookup, item `CC(C)(C)Nc1nc(Cl)nc(NCCN2CCOCC2)n1`
46.1

# solubility kinetic lookup, item `CCOc1ccc(CN2CCSCC2)cc1`
18.5

# solubility kinetic lookup, item `COc1ccc(-n2c(C)ccc2-c2ccccc2)cn1`
5.9

# solubility kinetic lookup, item `O=C(NCc1cccs1)C1CC1`
26.5

# solubility kinetic lookup, item `Cc1cc(C)cc(N(CC(=O)N2CCCCCC2)S(C)(=O)=O)c1`
48.5

# solubility kinetic lookup, item `CCOc1cccc(NC(=O)/C(C#N)=C\c2cccnc2)c1`
30.4

# solubility kinetic lookup, item `Cc1cccc(N2CCN(C(=O)CCc3nc4ccccc4c(=O)[nH]3)CC2)c1C`
2

# solubility kinetic lookup, item C=CCOc1cccc(C2NC(=O)c3ccccc3O2)c1 (stereo not given)
3

# solubility kinetic lookup, item `O=S(=O)(Nc1ccc(-c2nc3cccnc3s2)cc1)c1ccccc1F`
0.8

# solubility kinetic lookup, item `CCOc1ccc(/C=C2\SC(N3CCCCC3)=NC2=O)cc1`
1.6

# solubility kinetic lookup, item `Cc1ccc(CNc2ccccc2C(=O)O)s1`
23

* * *

I'd be grateful if you could share measured log10 solubility kinetic for these entries.
- Settings: buffer; pH 7.4; 200.0 µM
Values below are the log10 of the recorded solubility kinetic, with µg/mL as the unit.

# log10 solubility kinetic lookup, item `O=C(CN1C(=O)C(=O)c2ccccc21)NCCc1ccccc1`
1.63

# log10 solubility kinetic lookup, item CC(Oc1cccc(Br)c1)C(=O)Nc1cccc(S(=O)(=O)N2CCOCC2)c1 (configuration not stated)
1.21

# log10 solubility kinetic lookup, item `CCC(=O)N(Cc1cc2cc(OC)ccc2[nH]c1=O)c1ccc(C)cc1`
0.48

# log10 solubility kinetic lookup, item `CN1CCN(c2ccc(Cl)cc2NC(=O)/C=C/c2cccc(F)c2)CC1`
1.54

# log10 solubility kinetic lookup, item `CCOc1ccc(C)cc1S(=O)(=O)NC1CCCCCC1`
0.34

# log10 solubility kinetic lookup, item `O=C1NC(=S)N/C1=C/c1cccc2ccccc12`
0.23

# log10 solubility kinetic lookup, item `Cc1noc(C)c1-c1nc(CS(=O)(=O)c2ccccc2)no1`
0.90

# log10 solubility kinetic lookup, item `COc1cc(-c2cc(C(=O)Nc3cc(S(=O)(=O)N4CCOCC4)ccc3O)c3ccccc3n2)cc(OC)c1OC`
0.52

* * *

- Settings: buffer; pH 7.4; 200.0 µM
Measured Quantity: solubility kinetic (µg/mL)
Write the number in µg/mL without appending the unit.

# solubility kinetic lookup, item `COc1ccc(NC(=S)Nc2cnc3ccccc3c2)c(OC)c1`
45.1

# solubility kinetic lookup, item `Cc1cccc(NC(=O)CCS(=O)(=O)c2ccc(Cl)cc2)c1`
5.5

# solubility kinetic lookup, item `CC(C)(C)c1nc2cc(Cl)c([N+](=O)[O-])cc2o1`
6.5

# solubility kinetic lookup, item `Cc1cccc(CC(=O)N2CCCC2)c1`
28.7

# solubility kinetic lookup, item `FC(F)(F)c1ccc(-n2cnc3ccccc32)nc1`
13.5

# solubility kinetic lookup, item `O=S(=O)(Nc1ccc(-c2cn3ccccc3n2)cc1)c1ccccc1`
1.5

# solubility kinetic lookup, item `COC(=O)c1sccc1NC(=O)C1CC1`
21.8

# solubility kinetic lookup, item `Brc1ccc(-c2ncc3ccccn23)cc1`
29.3

# solubility kinetic lookup, item `CCOCCn1c(N2CCCC2)nc2c1c(=O)[nH]c(=O)n2C`
45.2

# solubility kinetic lookup, item `Cc1ccc2c(C)c(C(=O)N(C)Cc3ccncn3)oc2c1C`
32.7
